The following compounds are shown together with reported pIC50 values.
System: Skeletal Myofibril ATPase (Rabbit Psoas myofibrils)
Method notes: Skeletal Myofibril ATPase Assay
Measurement context: PK/LDH-coupled NADH absorbance at 340 nm
pIC50: −log10 of the molar value.

{"Compound": "O=c1ccc(-c2nc(-c3cccc(Cl)c3)no2)cn1Cc1cccnc1 [Compound 91]", "pIC50": "≥ 5.00"}
{"Compound": "O=C(Cn1nc(-c2cccs2)ccc1=O)Nc1ccccc1Cl [Compound 37]", "pIC50": "4.00 to 5.00"}
{"Compound": "O=c1ccc(-c2nc(-c3cncc(Cl)c3)no2)nn1Cc1ccccc1 [Compound 66]", "pIC50": "≥ 5.00"}
{"Compound": "Cc1ccc(-c2ccc(=O)n(CC(=O)N(C)c3ccccc3)n2)s1 [Compound 38]", "pIC50": "4.00 to 5.00"}
{"Compound": "Cc1cccc(-c2noc(-c3ccc(=O)n(Cc4cncnc4)c3)n2)c1 [Compound 105]", "pIC50": "≥ 5.00"}
{"Compound": "CCNC(=O)Cn1nc(-c2nc(-c3cccc(Cl)c3)no2)ccc1=O [Compound 14]", "pIC50": "≥ 5.00"}
{"Compound": "CCNC(=O)Cn1nc(-c2nc(-c3cccc(C(F)(F)F)c3)no2)ccc1=O [Compound 11]", "pIC50": "≥ 5.00"}
{"Compound": "Cc1cccc(-c2noc(-c3ccc(=O)n(Cc4cncc(Cl)c4)c3)n2)c1 [Compound 90]", "pIC50": "≥ 5.00"}
{"Compound": "Cc1cnc(-c2ccc(=O)n(CC(=O)NCc3ccccc3Cl)n2)s1 [Compound 26]", "pIC50": "≥ 5.00"}
{"Compound": "CC(c1cncc(F)c1)n1cc(-c2nc(-c3cccc(Cl)c3)no2)ccc1=O (stereo not shown) [Compound 117]", "pIC50": "< 3.92"}
{"Compound": "O=c1ccc(-c2nc(-c3ccncc3)no2)cn1Cc1ccccc1C(F)(F)F [Compound 120]", "pIC50": "< 3.92"}
{"Compound": "Cc1cccc(-c2noc(-c3ccc(=O)n(Cc4cncc(C#N)c4)c3)n2)c1 [Compound 98]", "pIC50": "≥ 5.00"}
{"Compound": "COCCn1nc(-c2nc(-c3ccc(F)c(F)c3)no2)ccc1=O [Compound 75]", "pIC50": "4.00 to 5.00"}
{"Compound": "O=c1ccc(-c2nc(-c3cncc(Cl)c3)no2)cn1Cc1cccnc1 [Compound 99]", "pIC50": "≥ 5.00"}
{"Compound": "O=c1ccc(-n2cncn2)nn1Cc1csc(Br)c1 [Compound 80]", "pIC50": "4.00 to 5.00"}
{"Compound": "O=c1ccc(-c2nc(C3CC3)no2)cn1Cc1c(F)cccc1Cl [Compound 123]", "pIC50": "< 3.92"}
{"Compound": "Cc1ccc(-c2ccc(=O)n(CC(=O)NC3CCCCC3)n2)s1 [Compound 44]", "pIC50": "< 4.00"}
{"Compound": "O=c1ccc(-c2nc(-c3ccncc3)no2)cn1Cc1ccc(Cl)cc1 [Compound 119]", "pIC50": "< 3.92"}
{"Compound": "O=c1ccc(-c2nc(-c3ccc(Cl)cc3)no2)cn1Cc1cccnc1 [Compound 125]", "pIC50": "< 3.92"}

* * *

System: Skeletal Myofibril ATPase (Rabbit Psoas myofibrils)
Method notes: Skeletal Myofibril ATPase Assay
Measurement context: PK/LDH-coupled NADH absorbance at 340 nm
The following compounds are shown together with reported IC50 values.
Metric: IC50

{"Substance smiles": "CCNC(=O)Cn1nc(-c2nc(-c3cccc(OC(F)F)c3)no2)ccc1=O", "System": "Skeletal Myofibril ATPase (Rabbit Psoas myofibrils)", "Measured value": "≤ 10 µM"}
{"Substance smiles": "Cc1ccc(-c2ccc(=O)n(CC(=O)N[C@](C)(C#N)C(C)C)n2)s1", "System": "Skeletal Myofibril ATPase (Rabbit Psoas myofibrils)", "Measured value": "10 to 100 µM"}
{"Substance smiles": "Cc1ccc(-c2ccc(=O)n(CC(=O)NCc3ccccc3F)n2)s1", "System": "Skeletal Myofibril ATPase (Rabbit Psoas myofibrils)", "Measured value": "≤ 10 µM"}
